target: HLA-A*24:03; test: IEDB peptide-MHC binding, purified MHC/direct/fluorescence; filed as Kd, often an IC50 or EC50 that approximates it; bounds were set here for any values at or beyond the usual limits of such assays; conditions: source organism: Mycobacterium tuberculosis str. Haarlem
ENDPOINT LABEL: Kd

Requested read-out: Kd. Entry: MAVTAAPYI
≥ 20 µM

----------
Please provide measured pIC50 for the entries that follow.
biological target: HLA-A*24:02; assay: IEDB peptide-MHC binding, purified MHC/competitive/fluorescence; bounds were set here for any values at or beyond the usual limits of such assays; details: source organism: Vaccinia virus
pIC50: −log10 of the molar value.

Requested read-out: pIC50. Entry: KSSKYYIKN
≤ 2.85

Requested read-out: pIC50. Entry: NIGNTKSNI
≤ 3.75

----------
molecular target: HLA-B*58:01; experiment: IEDB peptide-MHC binding, purified MHC/competitive/fluorescence; filed as Kd, often an IC50 or EC50 that approximates it; bounds were set here for any values at or beyond the usual limits of such assays; conditions: source organism: Giardia lamblia ATCC 50803
ENDPOINT LABEL: Kd

Requested read-out: Kd. Entry: MTYLDGHPV
≥ 5 µM

----------
molecular target: HLA-A*02:06; test: IEDB peptide-MHC binding, purified MHC/competitive/fluorescence; filed as Kd, often an IC50 or EC50 that approximates it; bounds were set here for any values at or beyond the usual limits of such assays; conditions: source organism: Salmonella enterica subsp. enterica serovar Typhi
pKd: −log10 of the molar value.
ENDPOINT LABEL: pKd

Request - read-out pKd | tested on HLA-A*02:06 | sequence MSAIVSCRY
≤ 4.70

----------
biological target: HLA-B*35:01; test: IEDB peptide-MHC binding, purified MHC/competitive/radioactivity; filed as Kd, often an IC50 or EC50 that approximates it; bounds were set here for any values at or beyond the usual limits of such assays; conditions: source organism: Triticum aestivum
Please provide measured Kd for the entries that follow.

Requested read-out: Kd. Entry: QPLQQYPL
≥ 36100 nM

Requested read-out: Kd. Entry: FPQPQLPY
244 nM

----------
target: HLA-B*18:01; assay: IEDB peptide-MHC binding, purified MHC/competitive/fluorescence; filed as Kd, often an IC50 or EC50 that approximates it; bounds were set here for any values at or beyond the usual limits of such assays; conditions: source organism: Cryptosporidium parvum Iowa II
pKd: −log10 of the molar value.
ENDPOINT LABEL: pKd

Requested read-out: pKd. Entry: FTWQHNYYL
≤ 4.70

----------
molecular target: HLA-B*58:01; experiment: IEDB peptide-MHC binding, purified MHC/direct/fluorescence; filed as Kd, often an IC50 or EC50 that approximates it; bounds were set here for any values at or beyond the usual limits of such assays; conditions: source organism: Brucella abortus 2308
ENDPOINT LABEL: Kd

Requested read-out: Kd. Entry: TPPVDRMAV
≥ 20 µM

----------
target: HLA-A*02:11; test: IEDB peptide-MHC binding, purified MHC/direct/fluorescence; filed as Kd, often an IC50 or EC50 that approximates it; bounds were set here for any values at or beyond the usual limits of such assays; details: source organism: Mycobacterium tuberculosis str. Haarlem
ENDPOINT LABEL: Kd

Requested read-out: Kd. Entry: MAVTAAPYI
≥ 20 µM

----------
molecular target: HLA-A*02:19; test: IEDB peptide-MHC binding, purified MHC/direct/fluorescence; filed as Kd, often an IC50 or EC50 that approximates it; bounds were set here for any values at or beyond the usual limits of such assays; conditions: source organism: Vibrio cholerae V52
pKd: −log10 of the molar value.
ENDPOINT LABEL: pKd

Request - read-out pKd | tested on HLA-A*02:19 | sequence EVNAHIHTM
≤ 4.70

----------
molecular target: HLA-A*68:02; assay: IEDB peptide-MHC binding, purified MHC/direct/fluorescence; filed as Kd, often an IC50 or EC50 that approximates it; bounds were set here for any values at or beyond the usual limits of such assays; conditions: source organism: Giardia lamblia ATCC 50803
pKd: −log10 of the molar value.
ENDPOINT LABEL: pKd

Request - read-out pKd | tested on HLA-A*68:02 | sequence MTYLDGHPV
≥ 9.00

----------
molecular target: HLA-C*14:02; experiment: IEDB peptide-MHC binding, purified MHC/direct/fluorescence; filed as Kd, often an IC50 or EC50 that approximates it; bounds were set here for any values at or beyond the usual limits of such assays; settings: source organism: Giardia lamblia ATCC 50803
ENDPOINT LABEL: Kd
Answer format: number, then unit.

Requested read-out: Kd. Entry: RYYLSFFHI
30 nM

----------
molecular target: HLA-A*02:01; assay: IEDB peptide-MHC binding, purified MHC/direct/fluorescence; filed as Kd, often an IC50 or EC50 that approximates it; bounds were set here for any values at or beyond the usual limits of such assays; details: source organism: Vaccinia virus Copenhagen
ENDPOINT LABEL: pKd
pKd is a log-scale quantity: -log10 of the concentration expressed in molar.

Request - read-out pKd | tested on HLA-A*02:01 | sequence LFMSHVKSV
5.76

----------
molecular target: HLA-A*23:01; assay: IEDB peptide-MHC binding, purified MHC/direct/fluorescence; filed as Kd, often an IC50 or EC50 that approximates it; bounds were set here for any values at or beyond the usual limits of such assays; details: source organism: Giardia lamblia ATCC 50803
ENDPOINT LABEL: Kd

Requested read-out: Kd. Entry: MTYLDGHPV
≥ 20 µM

----------
molecular target: HLA-A*11:01; assay: IEDB peptide-MHC binding, purified MHC/competitive/radioactivity; filed as Kd, often an IC50 or EC50 that approximates it; bounds were set here for any values at or beyond the usual limits of such assays; settings: source organism: Lassa virus Josiah
ENDPOINT LABEL: pKd
pKd is a log-scale quantity: -log10 of the concentration expressed in molar.

Requested read-out: pKd. Entry: THLGPQFCK
6.55

----------
molecular target: HLA-A*26:03; test: IEDB peptide-MHC binding, purified MHC/competitive/fluorescence; filed as Kd, often an IC50 or EC50 that approximates it; bounds were set here for any values at or beyond the usual limits of such assays; conditions: source organism: Human immunodeficiency virus 1
ENDPOINT LABEL: Kd

Requested read-out: Kd. Entry: KLKSLYNTV
≥ 20 µM

----------
target: HLA-B*40:01; assay: IEDB peptide-MHC binding, purified MHC/competitive/radioactivity; filed as Kd, often an IC50 or EC50 that approximates it; bounds were set here for any values at or beyond the usual limits of such assays; details: source organism: SARS coronavirus Tor2
pKd: −log10 of the molar value.
# if value of pKd reaches 5, tag Yes; if it stays below, tag No

# check: pKd of TEVVGNVIL is greater than or equal to 5
Yes

# check: pKd of FEHIVYGDF is greater than or equal to 5
Yes

# check: pKd of QECNNMHLST is greater than or equal to 5
No

# check: pKd of CEKALKYLPI is greater than or equal to 5
Yes

# check: pKd of REAACCHLA is greater than or equal to 5
Yes

# check: pKd of SEVAVLYQDV is greater than or equal to 5
Yes

# check: pKd of GENAVIPKG is greater than or equal to 5
No

# check: pKd of IEELFYSYA is greater than or equal to 5
No

# check: pKd of FEIDKGIYQT is greater than or equal to 5
Yes

# check: pKd of WEVGKPRPPL is greater than or equal to 5
Yes

# check: pKd of HEFVDEFYAY is greater than or equal to 5
Yes

# check: pKd of ADVFHLYLQY is greater than or equal to 5
No

# check: pKd of AEIVDTVSA is greater than or equal to 5
Yes

----------
target: HLA-B*27:05; experiment: IEDB peptide-MHC binding, purified MHC/direct/fluorescence; filed as Kd, often an IC50 or EC50 that approximates it; bounds were set here for any values at or beyond the usual limits of such assays; conditions: source organism: Yersinia pestis
pKd: −log10 of the molar value.
ENDPOINT LABEL: pKd

Request - read-out pKd | tested on HLA-B*27:05 | sequence STFAASGPF
≤ 4.70

----------
biological target: HLA-A*24:02; experiment: IEDB peptide-MHC binding, purified MHC/competitive/radioactivity; filed as Kd, often an IC50 or EC50 that approximates it; bounds were set here for any values at or beyond the usual limits of such assays; settings: source organism: Dengue virus 2 Jamaica/1409/1983
pKd: −log10 of the molar value.
# if value of pKd reaches 6, tag rule met; if it stays below, tag rule not met

# check: pKd of PYLGKREDQW is greater than or equal to 6
rule not met

# check: pKd of VHTWTEQYKF is greater than or equal to 6
rule not met

# check: pKd of QYIYMGEPLE is greater than or equal to 6
rule not met

# check: pKd of LYAVATTFVT is greater than or equal to 6
rule met

# check: pKd of EFFLIVLLI is greater than or equal to 6
rule not met
